The compounds listed here are annotated with their melting point.
measureName: melting point

compound=CCOc1nc(NCc2ccco2)nc(Nc2ccc(O)cc2)n1 measurename="melting point" endpointresult="45 °C"
compound="CN1C(=O)CC2(CCc3cc4ccccc4n3C2)C1=O (stereo not given)" measurename="melting point" endpointresult="158 to 164 °C"
compound=CC(C)(C)c1ccc(/C=N/OCCOc2ccc(C(=O)O)c(OC(=O)c3ccccc3)c2)cc1 measurename="melting point" endpointresult="129 to 131 °C"
compound=C=CCc1c(OCCCOc2ccc(C(C)=O)c(O)c2CCC)ccc2oc(C(=O)O)cc12 measurename="melting point" endpointresult="157 to 158 °C"
compound="COc1ccc2c(c1)C13CCN(C#N)C(C2)C1CC(C)C(=O)C3 (stereo not given)" measurename="melting point" endpointresult="188 to 192 °C"
compound=Nc1nc(Cl)c(N)c(NCCO)n1 measurename="melting point" endpointresult="164 to 167 °C"
compound="Cc1cc(C)c2c(c1)c1c(n2Cc2ccc(Cl)cc2)C(CC(=O)O)CCC1 (stereo not given)" measurename="melting point" endpointresult="187 to 188 °C"
compound=COc1ccc(-c2nn3c(SC)nnc3c3ccccc23)cc1 measurename="melting point" endpointresult="218 to 220 °C"
compound=Clc1c2c(nc3ccc(C4CCCCC4)cc13)CCCC2 measurename="melting point" endpointresult="89 to 91 °C"
compound="CN1c2ccccc2Sc2cc(C=CC3(C=Cc4ccc5c(c4)Sc4ccccc4N5C)C=CC(c4ccccc4)=CC3)ccc21 (stereo not given)" measurename="melting point" endpointresult="380 °C"

Taken from a melting point compilation (Tetko et al.; mined from patent text by program, amines drawn as free bases though some values may be those of a salt).
